// reported fold change in potency against SEQ ID NO:1 for each item listed
biological target: CGRP1 receptor (CRLR/RAMP1 complex) of human neuroblastoma SK-N-MC cells (human, UniProt Q16602 23-461; O60894 27-148); test: cell-based or functional assay
Sequence (Q16602 23-461, chain 1 of 2): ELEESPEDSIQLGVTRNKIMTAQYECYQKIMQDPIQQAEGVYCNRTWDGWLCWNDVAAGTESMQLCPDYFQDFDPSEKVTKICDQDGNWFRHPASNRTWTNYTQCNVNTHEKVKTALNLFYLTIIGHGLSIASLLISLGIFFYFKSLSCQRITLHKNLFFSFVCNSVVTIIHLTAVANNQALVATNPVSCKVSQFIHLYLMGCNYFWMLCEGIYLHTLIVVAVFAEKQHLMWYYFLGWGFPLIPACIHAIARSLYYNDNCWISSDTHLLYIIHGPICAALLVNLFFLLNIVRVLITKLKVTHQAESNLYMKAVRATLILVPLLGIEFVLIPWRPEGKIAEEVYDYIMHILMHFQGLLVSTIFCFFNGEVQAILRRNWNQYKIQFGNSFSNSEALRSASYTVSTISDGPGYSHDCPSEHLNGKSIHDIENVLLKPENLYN
Sequence (O60894 27-148, chain 2 of 2): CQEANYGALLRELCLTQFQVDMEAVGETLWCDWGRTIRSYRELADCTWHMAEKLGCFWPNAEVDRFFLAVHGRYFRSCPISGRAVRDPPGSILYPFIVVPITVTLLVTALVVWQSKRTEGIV
Ends that are not written are not given here.
Measure Name: fold change in potency against SEQ ID NO:1

{"Binder": "CGGGGGGGVTHRLAGLLSRSGGVVKNNFVPTDVGPFAF-NH2 [SEQ ID NO 3]", "Reported Value": "> 6 fold"}
{"Binder": "WVTHRLAGLLSRSGGVVKNNFVPTNVGSKAF-NH2 [SEQ ID NO 4]", "Reported Value": "> 7 fold"}
{"Binder": "Ac-WVTHRLAGLLSRSGGVCRNNFVPTDVGPFAF-NH2 (not fully specified (residue 17); printed as Ac-WVTHRLAGLLSRSGGVCRNNFVPTDVGPFAF-NH2) [SEQ ID NO 18]", "Reported Value": "~31 fold"}
{"Binder": "Ac-WVTHRLAGLLSRSGGVVRKNFVPTDVGPFAF-NH2 (not fully specified (residue 19); printed as Ac-WVTHRLAGLLSRSGGVVRKNFVPTDVGPFAF-NH2) [SEQ ID NO 16]", "Reported Value": "~12 fold"}
{"Binder": "Ac-WVTHRLAGLLSRSGGVVRKNFVPTDVGPFAF-NH2 (not fully specified (residue 19); printed as Ac-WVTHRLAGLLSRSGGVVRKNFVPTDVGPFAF-NH2) [SEQ ID NO 15]", "Reported Value": "~12 fold"}
